Tested on: NCI-H226
Assay: NCI tumour cell line growth inhibition, 48 h
Calls of active or inactive are those of the source. No stated cut-off is given here; in the data, active = GI50 up to about 1.1 µM and inactive = higher.
Overview of reported GI50 across a group of molecules:

Reference set, count: 5
MOLECULE: CC(=O)Oc1ccccc1-c1cc2ccccc2oc1=O
GI50: 31 µM (inactive)

MOLECULE: Cc1ccnc2sc3ccccc3c(=O)c12
GI50: 36.1 µM (inactive)

MOLECULE: CCNC(=O)C(O)C1(O)CCC2[C@@H]3CCC4=CC(=O)C=C[C@]4(C)C3[C@@H](O)C[C@@]21C (stereo partly specified)
GI50: > 87.5 µM (inactive)

MOLECULE: COC(=O)c1c(C)cccc1/C=C1/Cc2c(C)cccc2C1=O
GI50: > 100 µM (inactive)

MOLECULE: Cc1nc([N+](=O)[O-])cn1CC(=N)N
GI50: > 100 µM (inactive)

Please find the next molecule below.
QUERY: Answer with the recorded GI50 for the molecule listed here: "S=C1Cc2c(-c3ccc(Cl)cc3)cc(-c3ccccc3)nc2-c2ccccc2N1"
RESULT: 13.1 µM (inactive)

---

System: COLO 205
Assay: NCI tumour cell line growth inhibition, 48 h
Active and inactive are the calls of the source. No stated cut-off is given here; in the data, active = GI50 up to about 1.1 µM and inactive = higher.
OBSERVED_PROPERTY: GI50

COMPOUND: O=C1NC(=O)[C@@]2(CC[C@@H](O)C2)c2ccncc21
GI50: > 100 µM (inactive)

COMPOUND: O=C=C=P(c1ccccc1)(c1ccccc1)c1ccccc1
GI50: 23.7 µM (inactive)

COMPOUND: C=C1C(=O)OC2CC(C)C(C(CC(C)=O)OC(C)=O)=CCC12 (centres undefined)
GI50: 6.82 µM (inactive)

In the following, a different compound is considered.
QUERY: Determine reported GI50 for "COc1ccc(/C(Br)=C2\OC(=O)c3ccccc32)cc1" ; test system: COLO 205.
RESULT: > 10 µM (inactive)

---

System: MCF7
Assay: NCI tumour cell line growth inhibition, 48 h
Calls of active or inactive are those of the source. Rule as the data show it: active = GI50 up to about 1.1 µM and inactive = higher.
Your answer must be one of the following: 1.0 = active, 0.0 = inactive

Examples with answers:
MOLECULE: CCOP(=O)(OCC)c1cc2cc(O)ccc2oc1=O
TESTED_ON: MCF7
GROUP_LABEL: 0.0
--
MOLECULE: CC(=O)Oc1cc2c(c3ncccc13)OC(C)(C)C2
TESTED_ON: MCF7
GROUP_LABEL: 0.0

QUERY: Please share the test call associated with "N=C(c1cccs1)C1(N2CCCCC2)CCCCC1" .
RESULT: 0.0

QUERY: Please share the test call associated with "CN(C)Cc1cc(C(C)(C)C)cc(CN(C)C)c1O" .
RESULT: 0.0

QUERY: Status in this test for CC(C)(C)NC(=O)C12C3C4C1C1C2C3C41C(=O)NC(C)(C)C (stereo not given) ?
RESULT: 0.0

QUERY: Any idea what this test logged for CC(=O)OCC1=C(C(=O)O)N2C(=O)C(NC(=O)CSc3ccncc3)C2SC1 (stereo not given) ?
RESULT: 0.0

QUERY: I would be grateful if you could indicate the recorded call for "O=c1c2cccnc2cc(-c2ccccc2)n1CCO" .
RESULT: 0.0

QUERY: Could you please tell me the result logged for "COC(=O)[C@@H]1C[C@@]23CCCN4CC[C@@]5(c6cccc(OC)c6N(C=O)[C@]15CC2)[C@@H]43" in this assay?
RESULT: 0.0

QUERY: // return assay outcome for "C/C(=N\Nc1nc2ccccc2[nH]1)c1ncccn1"
RESULT: 1.0

QUERY: Could you check what this test reported for "C#CC[C@@H]1C(=O)N(Cc2ccc(OC)cc2)[C@@H](C(C)C)C(=O)N1Cc1ccc(OC)cc1" ?
RESULT: 0.0

---

Tested on: MDA-MB-435
Assay: NCI tumour cell line growth inhibition, 48 h
Calls of active or inactive are those of the source. Cut-off read from the data, not from the text of the source: active = GI50 up to about 1.1 µM and inactive = higher.
// one of TRUE for active, FALSE for inactive, no free text

Examples with answers:
COMPOUND: CCOC(=O)N(Cc1cccs1)c1cc(OC)c(OC)c(OC)c1
GROUP_LABEL: FALSE
//
COMPOUND: COc1ccc2c(c1O)-c1c(OC)c(OC)cc3c1[C@H](C2)[N+](C)(C)CC3
GROUP_LABEL: FALSE
//
COMPOUND: Brc1ccc2c(c1)C1=C(CO2)Cc2ccccc2O1
GROUP_LABEL: FALSE
//
COMPOUND: O=c1[nH]c2ccc(C(F)(F)F)cc2nc1C(F)(F)F
GROUP_LABEL: FALSE
//
COMPOUND: COC(=O)[C@@H]1C[C@@]23CCCN4CC[C@@]5(c6cccc(OC)c6N(C=O)[C@]15CC2)[C@@H]43
GROUP_LABEL: FALSE

QUERY: In this assay, the call recorded for "Cc1cc(C)nc(NC(=O)COc2ccc(Cl)cc2)c1" was what?
RESULT: FALSE

QUERY: For "CN(CCc1ccccn1)C(=S)N/N=C/c1ccccn1" , what call appears in the results of this test?
RESULT: TRUE

QUERY: Assay result, entry "Cc1c(C(=O)O)n2cnnc2c2ccccc12" — outcome?
RESULT: FALSE

QUERY: Dear all, I need the recorded test outcome for "COc1cc2c3c(c1OC)C(=O)C(=O)C1=C3N(CCC1)CC2" , thank you.
RESULT: FALSE

QUERY: Status in this test for "COc1ccc(CCCCl)c(C2=NCCc3ccccc32)c1" ?
RESULT: FALSE

QUERY: Given "OCCN(CCO)CCn1cnc2c(NCc3ccccc3)ncnc21" , state the outcome it received in this test.
RESULT: FALSE

QUERY: Recorded test call requested for "CCCOc1ccc2sc(NC(=O)c3cc([N+](=O)[O-])cc([N+](=O)[O-])c3)nc2c1"
RESULT: FALSE

QUERY: # fetch the recorded call for "COc1cc(/C=C/c2nc(N)nnc2C)cc(OC)c1OC" here
RESULT: FALSE

QUERY: Could you check what this test reported for "O=C(COc1ccc(OCC(=O)N2C(=O)CS/C2=N\c2ccccc2)cc1)N1C(=O)CS/C1=N\c1ccccc1" ?
RESULT: FALSE

QUERY: Identify the outcome logged in this assay for the compound shown: S=C1c2ccc(Cl)cc2-n2cnnc2C2CSCN12 (stereo not given)
RESULT: FALSE

QUERY: Would you mind telling me which call this test gave C=C1C(=O)O[C@H]2C1C[C@@H](O)/C(C)=C/CC[C@@]1(C)O[C@H]21 (stereo not given in full) ?
RESULT: FALSE

QUERY: Recorded test outcome, item "O=C(CNc1ccccc1C(=O)O)Nn1cnc2ccc(S(=O)(=O)Nc3ccccc3C(=O)O)cc2c1=O"
RESULT: FALSE

QUERY: Which outcome was entered for the compound "CCOC(=O)c1nc2ccccc2nc1NCc1cc(OC)c(OC)c(OC)c1" in this test?
RESULT: FALSE

QUERY: Recorded test outcome, item CCOC(=O)NC(Nc1ncccn1)(C(=O)OCC)C(F)(F)F (stereo not given)
RESULT: FALSE

QUERY: Write down the call the test reported for this compound. Item: "CN(C)CCCc1c2ccccc2nc2ccc(Cl)cc12"
RESULT: FALSE

---

System: SNB-19
Assay: NCI tumour cell line growth inhibition, 48 h
The source made the active and inactive calls. Rule as the data show it: active = GI50 up to about 1.1 µM and inactive = higher.
The following compounds are listed with their measured GI50 values.

QUERY: Look up GI50 of "ClCc1nn(-c2ccccc2)c(CCl)c1CCl" and report it.
RESULT: 6.73 µM (inactive)

QUERY: Input "CCOC(=O)c1cn2c(n1)sc1cc(F)ccc12" , output reported GI50.
RESULT: > 100 µM (inactive)

QUERY: Indicate its recorded GI50; the compound in question is "CCN(CC)/N=N/c1c(C(N)=O)n[nH]c1C"
RESULT: 77.1 µM (inactive)

QUERY: Return GI50 for the following compound: "CC1=N/C(=C\c2ccc(C)cc2)C(=O)O1"
RESULT: > 100 µM (inactive)

QUERY: Please list GI50 recorded for the compound "O=C1NC(=S)S/C1=C/c1ccco1"
RESULT: > 100 µM (inactive)

---

Test system: KM12
Assay: NCI tumour cell line growth inhibition, 48 h
The source made the active and inactive calls. No stated cut-off is given here; in the data, active = GI50 up to about 1.1 µM and inactive = higher.
Bench note: report the call from YES (active), NO (inactive)

Consider the worked cases shown below.
COMPOUND: COc1ccc(C2OC2C(=O)C23CC4CC(CC(C4)C2)C3)cc1 (stereo not given)
GROUP_LABEL: NO

COMPOUND: CC1CC(=O)N(N(C)C)C(C#N)(C#N)C1(C#N)C#N (stereo not given)
GROUP_LABEL: NO

QUERY: Could you check what this test reported for CCOC(=O)NC(Nc1ncccn1)(C(=O)OCC)C(F)(F)F (stereo not given) ?
RESULT: NO

QUERY: How did this test come out for CCCCCCCCCCCCCCCCCC(=O)OCC(CN(C)CCN(C)C)OC(=O)CCCCCCCCCCCCCCCCC (stereo not given) ?
RESULT: NO

QUERY: Any idea what this test logged for "CNC=O" ?
RESULT: NO

QUERY: State the result this test recorded for "N=C(c1cccs1)C1(N2CCCCC2)CCCCC1" .
RESULT: NO

QUERY: Check the results log: what was the call for "CSc1c(CC(=O)O)n(Cc2ccccc2)c2ccccc12" ?
RESULT: NO

QUERY: I'd appreciate the recorded outcome for COc1cc2oc3c(c(=O)c2c(O)c1/C=C/C(C)C)C(C=C(C)C)Oc1cc(O)ccc1-3 (stereo not given) from this test.
RESULT: NO

Origin of measurements: ChEMBL document CHEMBL1201862
